System: bacteria isolated from Cooling Tower water
Assay: Efficacy in sterile artificial Cooling Tower water (approx. pH 8.5)
Format: cell-based
Conditions: 3 h, 30° C.
MEASUREMENT LABEL: Minimum biocide dosage (ppm, active) needed for at least 3 log10 bacterial reduction (ppm)

{"COMPOUND": "N#CC(Br)(Br)C(N)=O [DBNPA, 2,2-Dibromo-3-nitrilopropionamide]", "TARGET UNDER TEST": "bacteria isolated from Cooling Tower water", "ENDPOINT VALUE": 8.0}
{"COMPOUND": "O=CCCCC=O [Glutaraldehyde]", "TARGET UNDER TEST": "bacteria isolated from Cooling Tower water", "ENDPOINT VALUE": 26.0}
{"COMPOUND": "CCCCCCCC[N+](C)(C)CCCCCCCC.[Cl-] [Dioctyl dimethyl ammonium chloride]", "TARGET UNDER TEST": "bacteria isolated from Cooling Tower water", "ENDPOINT VALUE": 29.0}
{"COMPOUND": "CC1(C)C(=O)N(Cl)C(=O)N1Br [BCDMH, 1-Bromo-3-chloro-5,5-dimethylhydantoin]", "TARGET UNDER TEST": "bacteria isolated from Cooling Tower water", "ENDPOINT VALUE": 26.0}
{"COMPOUND": "NC(=O)C(Br)(Br)C(N)=O [DBMAL, 2,2-Dibromomalonamide]", "TARGET UNDER TEST": "bacteria isolated from Cooling Tower water", "ENDPOINT VALUE": 11.0}

###

System: bacteria isolated from Cooling Tower water
Experiment: Efficacy in sterile artificial Cooling Tower water (approx. pH 8.5)
Format: cell-based
Details: 24 h, 30° C.
MEASUREMENT LABEL: Minimum biocide dosage (ppm, active) needed for at least 3 log10 bacterial reduction

{"COMPOUND": "CCCCCCCC[N+](C)(C)CCCCCCCC.[Cl-] [Dioctyl dimethyl ammonium chloride]", "ENDPOINT VALUE": "56.0 ppm"}
{"COMPOUND": "O=CCCCC=O [Glutaraldehyde]", "ENDPOINT VALUE": "26.0 ppm"}
{"COMPOUND": "NC(=O)C(Br)(Br)C(N)=O [DBMAL, 2,2-Dibromomalonamide]", "ENDPOINT VALUE": "5.0 ppm"}
{"COMPOUND": "N#CC(Br)(Br)C(N)=O [DBNPA, 2,2-Dibromo-3-nitrilopropionamide]", "ENDPOINT VALUE": "11.0 ppm"}
{"COMPOUND": "CC1(C)C(=O)N(Cl)C(=O)N1Br [BCDMH, 1-Bromo-3-chloro-5,5-dimethylhydantoin]", "ENDPOINT VALUE": ">70.0 ppm"}

###

Test system: bacteria isolated from Cooling Tower water
Assay: Efficacy in sterile artificial Cooling Tower water (approx. pH 8.5)
Type: cell-based
Conditions: 48 h, 30° C., reinoculated
MEASUREMENT LABEL: Minimum biocide dosage (ppm, active) needed for at least 3 log10 bacterial reduction (ppm)

{"MOLECULE": "N#CC(Br)(Br)C(N)=O [DBNPA, 2,2-Dibromo-3-nitrilopropionamide]", "BOUND OPERATOR": "=", "ENDPOINT VALUE": 15.0}
{"MOLECULE": "NC(=O)C(Br)(Br)C(N)=O [DBMAL, 2,2-Dibromomalonamide]", "BOUND OPERATOR": "=", "ENDPOINT VALUE": 5.0}
{"MOLECULE": "CC1(C)C(=O)N(Cl)C(=O)N1Br [BCDMH, 1-Bromo-3-chloro-5,5-dimethylhydantoin]", "BOUND OPERATOR": ">", "ENDPOINT VALUE": 70.0}
{"MOLECULE": "O=CCCCC=O [Glutaraldehyde]", "BOUND OPERATOR": "=", "ENDPOINT VALUE": 51.0}
{"MOLECULE": "CCCCCCCC[N+](C)(C)CCCCCCCC.[Cl-] [Dioctyl dimethyl ammonium chloride]", "BOUND OPERATOR": "=", "ENDPOINT VALUE": 56.0}

Provenance of the data: patent US20100314318A1
